System tested: ferroportin (Homo sapiens)
Measurement description: FPN activity assay: ferroportin-GFP internalization/degradation in HEK293 cells
Type: cell-based
Set-up: expressed in transfected cells
Recorded conditions: ferroportin-GFP HEK293 cells, at least 18 hours; read-out: FPN IC50
Positions of bridges follow the written chain, without caps; N, C: chain ends. Non-standard residues stand in square brackets, D forms with d. Residues, ends and D or L forms follow the SMILES beside them. Groups on a side chain read outwards from the residue. *: point of attachment. C18 diacid = O=C(O)CCCCCCCCCCCCCCCCC(=O)*; Dip = N[C@H](C(=O)O)C(c1ccccc1)c1ccccc1; Palmitoyl = CCCCCCCCCCCCCCCC(=O)*; β3hF = N[C@H](CC(=O)O)Cc1ccccc1; Isovaleryl = CC(C)CC(=O)*; AEEA = NCCOCCOCC(=O)O; Ahx = NCCCCCC(=O)O
Readout: DC50

INSERT INTO measurements (compound, readout, reading) VALUES
  ('CCCCCCCCCCCCCCCC(=O)NCCCCCC(=O)NCCCC[C@H](NC(=O)C[C@H](Cc1ccccc1)NC(=O)[C@@H](CCCCN)NC(=O)[C@@H](NC(=O)[C@@H]1CSSC[C@H](NC(=O)[C@@H](NC(=O)[C@H](Cc2c[nH]cn2)NC(=O)[C@@H](NC(=O)[C@H](CCC(=O)O)NC(=O)CC(C)C)[C@@H](C)O)C(c2ccccc2)c2ccccc2)C(=O)N1)[C@@H](C)CC)C(=O)N[C@H](CCCCN)C(N)=O [Compd 4] (Isovaleryl-ETH[Dip]CCI[dK][β3hF]K([Ahx-Palmitoyl])[dK]-NH2; disulfide 5-6)', 'DC50', '10 to 100 nM');

Let's switch to this compound now.
DC50 measured on CC[C@H](C)[C@H](NC(=O)[C@@H]1CSSC[C@H](NC(=O)[C@H](Cc2c[nH]cn2)NC(=O)[C@@H](NC(=O)[C@H](CCC(=O)O)NC(=O)CC(C)C)[C@@H](C)O)C(=O)N2CCC[C@H]2C(=O)N1)C(=O)N[C@H](CCCCN)C(=O)N[C@H](CC(=O)N[C@@H](CCCCNC(=O)COCCOCCNC(=O)COCCOCCNC(=O)CCCCCNC(=O)CCCCCCCCCCCCCCCCC(=O)O)C(=O)N[C@H](CCCCN)C(N)=O)Cc1ccccc1 [Compd 24] (Isovaleryl-ETHCPCI[dK][β3hF]K([AEEA-AEEA-Ahx-C18 diacid])[dK]-NH2; disulfide 4-6) = 100 to 500 nM

====

System tested: ferroportin (Homo sapiens, UniProt Q9NP59)
Sequence (Q9NP59 whole entry): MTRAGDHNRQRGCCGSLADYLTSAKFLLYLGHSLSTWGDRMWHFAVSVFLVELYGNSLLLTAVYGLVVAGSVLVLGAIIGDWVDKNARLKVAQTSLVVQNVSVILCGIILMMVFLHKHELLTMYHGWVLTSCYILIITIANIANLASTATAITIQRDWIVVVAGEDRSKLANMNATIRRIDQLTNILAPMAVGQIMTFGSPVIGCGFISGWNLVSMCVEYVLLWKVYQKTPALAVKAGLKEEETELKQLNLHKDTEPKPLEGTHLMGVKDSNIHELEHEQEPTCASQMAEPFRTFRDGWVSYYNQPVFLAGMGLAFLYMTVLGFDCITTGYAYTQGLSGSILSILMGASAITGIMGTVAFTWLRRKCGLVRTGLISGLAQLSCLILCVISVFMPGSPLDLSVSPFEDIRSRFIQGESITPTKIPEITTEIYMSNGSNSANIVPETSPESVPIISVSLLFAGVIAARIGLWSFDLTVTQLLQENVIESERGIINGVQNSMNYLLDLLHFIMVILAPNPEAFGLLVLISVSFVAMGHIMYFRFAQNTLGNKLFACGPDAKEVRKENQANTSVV
Measurement description: T47D cell-based ferroportin internalization assay in presence of mouse serum albumin (MSA)
Set-up: a human breast carcinoma adherent cell line which endogenously expresses ferroportin; host or cells: T47D
Recorded conditions: Table 6E; T47D internalization assay with MSA
pIC50: −log10 of the molar value. Positions of bridges follow the written chain, without caps; N, C: chain ends. Non-standard residues stand in square brackets, D forms with d. Residues, ends and D or L forms follow the SMILES beside them. *: point of attachment. X5 = CCCCCCCCCCCCCCCC(=O)NCC[N+](C)(C)CC(=O)*; Dip = N[C@H](C(=O)O)C(c1ccccc1)c1ccccc1; NMeT = CN[C@H](C(=O)O)[C@@H](C)O; NMeK = CN[C@@H](CCCCN)C(=O)O; Isovaleryl = CC(C)CC(=O)*
Readout: pIC50

Documented pIC50 of CCCCCCCCCCCCCCCC(=O)NCC[N+](C)(C)CC(=O)NCCCC[C@@H](C(=O)N[C@H](C(=O)N(C)[C@@H](CCCCN)C(N)=O)C(c1ccccc1)c1ccccc1)N(C)C(=O)[C@@H]1CSSC[C@H](NC(=O)[C@@H]2CCCN2C(=O)[C@@H](NC(=O)[C@H](Cc2c[nH]cn2)NC(=O)[C@H]([C@@H](C)O)N(C)C(=O)[C@H](CCC(=O)OC)NC(=O)CC(C)C)C(c2ccccc2)c2ccccc2)C(=O)N1 [compound 149] (Isovaleryl-E(OMe)[NMeT]H[Dip]PCC[NMeK](X5)[Dip][NMeK]-NH2; disulfide 6-7) : 7.00 to 8.00
